# Protocol Description: yeast display, Sf9 membrane polyspecificity reagent, FACS + sequencing; frameworks hold sequencing errors
Readout Kind: polyreactivity (PSR sort gate)

Recorded polyreactivity (PSR sort gate), per entry:
IN: State its polyreactivity (PSR sort gate) for this sequence: QVQLVESGGGLVQAGGSLRLSCAASGSIFRINAMGWYRQAPGKERELVAAISTSGGTTYYADSVKGRFTISRDNAKNTVYLQMNSLKPEDTAVYYCSARRVTSPFGSDSWGQGTQVTVSS
OUT: low polyreactivity

IN: Provide one value: measured polyreactivity (PSR sort gate) of QVQLVESGGGLVQAGGSLRLSCAASGITFRSYAMGWYRQAPGKERELVAAISSTGRTYYADSVKGRFTISRDNAKNTVYLQMNSLKPEDTAVYYCATGGQGAFWGQGTQVTVSS
OUT: high polyreactivity

IN: Specify reported polyreactivity (PSR sort gate) for the sequence shown: QVQLVESGGGLVQAGGSLRLSCAASGRIFYPYAMGWYRQAPGKERELVAAIRRSGVDTYYADSVKGRFTISRDNAKNTVYFQMNSLKPEDTAVYYCAADPYWFFPHYDSWGQGTQVTVSS
OUT: low polyreactivity

IN: Quickly give me recorded polyreactivity (PSR sort gate) for QVQLVESGGGLVQAGGSLRLSCAASGGTFYTNVMGWYRQAPGKERELVAAITRSGGSTHYADSVKGRFTISRDNAKNTVYLQMNSLKPEDTAVYYCAKDRVGEMYYWGQGTQVTVSS
OUT: low polyreactivity

Next sequence, please.
IN: Assign polyreactivity (PSR sort gate) to the following record: QVQLVESGGGLVQAGGSLRLSCAASGRIFYYNAMGSYRQAPGKESELVAAIRRSGSRTYYADSVKGRFTISRDNSKNTVSLEMNSLKPEDTAVYYCAAKYASFAHHDSWGQGTQVTVSS
OUT: high polyreactivity
